- Procedure Text: in vitro
- Design: species or system HB2, HEK293
- Measurement Context: human, ccd841 cells
Endpoint: viability at 48 h, 10 µM (%)

Cc1ccc(C2=NN(C(=O)CCl)C(c3ccco3)C2)o1 (stereo not shown) : 12.7
O=C(Nc1ccccc1O)C1CCN(C(=O)CCl)CC1 : 63
O=C(CCl)N=c1sccn1Cc1cccc2ccccc12 : 4.2
O=C(CCl)N1CCN(c2ncc(Cl)cc2Cl)CC1 : 36.4

====

- Target Or System: NUDT7 (Homo sapiens)
- Construct: residues 14-235, E. coli, pNIC28-Bsa4, N-terminal His6 tag removed by TEV, construct 26672 Da
- Sequence (P0C024 14-235): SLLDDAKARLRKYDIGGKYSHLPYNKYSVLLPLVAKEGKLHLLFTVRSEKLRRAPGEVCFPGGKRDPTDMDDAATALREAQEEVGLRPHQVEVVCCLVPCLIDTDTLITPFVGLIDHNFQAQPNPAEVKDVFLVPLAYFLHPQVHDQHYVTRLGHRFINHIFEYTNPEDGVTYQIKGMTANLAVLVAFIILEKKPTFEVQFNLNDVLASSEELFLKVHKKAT
- Design: Intact protein LC/MS covalent labelling, fragments in pools of five, 200 uM each, 4 °C
- Measurement Context: 24 h, 4 °C, pool of five; 200 µM; covalent
Endpoint: NUDT7

C=CC(=O)N1CCC(C(=O)[O-])CC1.[Na+] [PCM-0102613] : 0
C=CC(=O)NC1(CO)Cc2ccccc2C1 [PCM-0102446] : 0.38
Cc1cccc(CN2CCN(C(=O)CCl)CC2)c1 [PCM-0102340] : 0
COC(=O)c1ccccc1N(C)C(=O)CCl [PCM-0102589] : 0.15

Numbers sourced from paper PMC6556873.
